Test system: wheat germ agglutinin (Triticum aestivum), Alexa647-labelled
Test: wheat germ agglutinin binders on compound microarrays, profiling panel, artefact control for SMM control-protein annotation, biochemical, small-molecule microarray, 635/667 nm fluorescence (AID 1140);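 also: score merges 667 nm feature emission with signal to noise over triplicate slides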
Settings: WGA-A647 binding, 635 nm fluorescence, higher = more signal

RECORD_SMILES | TARGET_OR_TEST_SYSTEM | composite z-score
C=CCNC(=O)[C@@H]1[C@H]2C(=O)O[C@H](c3ccccc3)[C@H](c3ccccc3)N2[C@H](c2ccccc2OCCO)[C@@]12C(=O)N(C(=O)OCCOC)c1ccc(C#CCCO)cc12 | wheat germ agglutinin (Triticum aestivum), Alexa647-labelled | 0.971
COC(=O)[C@@]1(Cc2ccc(F)cc2)[C@H]2c3cc(C(=O)N(C)C)n(CCN4CCOCC4)c3C[C@H]2CN1C(=O)c1ccccc1 | wheat germ agglutinin (Triticum aestivum), Alexa647-labelled | 0.331
COCCOC(=O)N1C(=O)[C@@]2(c3ccccc31)[C@H](C(=O)N1CCCCCCC1)[C@H]1C(=O)O[C@H](c3ccccc3)[C@H](c3ccccc3)N1[C@@H]2c1ccc(O)cc1 | wheat germ agglutinin (Triticum aestivum), Alexa647-labelled | 1.25

====

Let's look at some compounds and their measured composite z-score.
Experiment: small-molecule binders of probe aLefty1, primary screen, biochemical, small-molecule microarray, 635/667 nm fluorescence (AID 1153);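 also: score merges spot fluorescence with signal-to-noise ratio from the scanned slide images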
Details: higher = more signal
READOUT_KIND: composite z-score

COMPOUND | READOUT_KIND | OBS_VALUE
O=C(NCCO)C1=C[C@H](Oc2ccccc2I)[C@@H](O)[C@H](NCc2ccc(F)cc2)C1 | composite z-score | -0.338
O=C1O[C@@H](c2ccccc2)[C@@H](c2ccccc2)N2[C@@H](c3ccc(OCCO)cc3)[C@]3(C(=O)Nc4ccc(C#CCCO)cc43)[C@@H](C(=O)Nc3nc4ccccc4s3)[C@H]12 | composite z-score | 0.573
COCCOC(=O)N1C(=O)[C@@]2(c3ccccc31)[C@H](C(=O)N1CCCCCCC1)[C@H]1C(=O)O[C@H](c3ccccc3)[C@H](c3ccccc3)N1[C@@H]2c1ccc(O)cc1 | composite z-score | 3.16
CN1C(=O)C2C(C1=O)C1C=C(c3ccc(CO)cc3)C2C(c2cccs2)N1C (configuration not stated) | composite z-score | 0.186
CCCCC=C[C@@H](NC(=O)c1ccc(C(F)(F)F)cc1)c1ccccc1 | composite z-score | -0.112
NC(=O)NCC#Cc1ccc2c(c1)[C@]1(C(=O)N2)[C@H](C(=O)N2CCCCCCC2)[C@H]2C(=O)O[C@H](c3ccccc3)[C@H](c3ccccc3)N2[C@@H]1c1ccc(O)cc1 | composite z-score | 2.3
CN1C(=O)[C@]2(CCC(=O)OC(C)(C)C)N=C(c3ccc(OCCCO)cc3)O[C@@H]2c2ccccc21 | composite z-score | 0.448

====

Test: FRG1 promoter luciferase signal modulators, primary screen, FRG1 inhibition for FSHD, cell-based, C2C12 myotubes, firefly/Renilla luciferase, luminescence (AID 1084)
Details: higher = more signal, called active from +8 up or from −8 down

MOLECULE | z-score
COCCOC(=O)N1C(=O)[C@@]2(c3cc(C#CCC(C(=O)OC)C(=O)OC)ccc31)[C@H](c1ccc(OCCO)cc1)N1[C@H](c3ccccc3)[C@H](c3ccccc3)OC(=O)[C@H]1[C@@H]2C(=O)N1CCCCCCC1 | 0.562
COCCOC(=O)N1C(=O)[C@@]2(c3cc(C#CCC(C(=O)OC)C(=O)OC)ccc31)[C@H](C(=O)N1CCc3cc(OC)c(OC)cc3C1)[C@H]1C(=O)O[C@H](c3ccccc3)[C@H](c3ccccc3)N1[C@@H]2c1ccc(O)cc1 | 0.217
NCCCC[C@@H]1NC(=O)[C@H]2C[C@@H](C(=O)NCc3ccc(F)cc3)[C@@H](c3ccc(O)cc3)N2C1=O | 5.15
CC(C)C(=C=CC[C@@H](O)c1ccccc1OCCO)C[C@@H](O)c1cc(Cl)cc(Cl)c1O | -1.95
CC(C)C[C@@H]1NC(=O)[C@@H]2C[C@H](C(=O)O)[C@H](c3ccc(O)cc3)N2C1=O | -0.93
CCc1cccc(NC(=O)O[C@H]2[C@H](OC(=O)Nc3ccc4c(c3)OCO4)[C@H](OC(=O)Nc3ccc4c(c3)OCO4)[C@@H](OC)O[C@@H]2CO)c1 | 4.53
CC1(C)OC[C@@]23C=C(Br)[C@@H](C[C@H]12)[C@@]1(CO1)C3=O | -0.468
COc1ccc([Si](C)(C)[C@H]2[C@H](CC(=O)N3Cc4ccccc4C[C@H]3CO)O[C@@]3(C(=O)N(Cc4cccc(N5C(=O)c6cccc7cccc5c67)c4)c4ccccc43)[C@@H]2C)cc1 | -2.61
COC(=O)[C@@]1(Cc2ccc(OC)cc2)[C@H]2c3cc(C(=O)N4CCCC4)n(CCc4ccc(OC)c(Br)c4)c3C[C@H]2CN1C(=O)c1ccccc1 | 1.25
COc1ccc(NC(=O)O[C@H]2[C@H](OC(=O)Nc3ccc4c(c3)OCO4)[C@H](OC(=O)Nc3ccc4c(c3)OCO4)[C@@H](OC)O[C@@H]2CO)cc1 | 3.53
COc1cc2c(cc1O)C(C1CC1)N(Cc1ccc([N+](=O)[O-])o1)CC2 (configuration not stated) | -1.1
CC(C)C[C@@H]1NC(=O)[C@@]23C(=O)N[C@@H](Cc4ccccc4)C2[C@H](C)[C@@]2(C)O[C@H]2C3/C=C/C/C=C\CNC(=O)[C@@H](CC(C)C)NC1=O (some centres not stated) | 2.49
COCCOC(=O)N1C(=O)[C@@]2(c3ccccc31)[C@H](C(N)=O)[C@H]1C(=O)O[C@H](c3ccccc3)[C@H](c3ccccc3)N1[C@@H]2c1ccc(OCCO)cc1 | 0.341
CC(c1ccccc1)C(O)C1C=CC2C(=O)N(c3ccccc3)C(=O)C2N1Nc1ccc(C#N)cc1 (configuration not stated) | -0.948
CCCCC(=C=CC[C@@H](O)c1ccc(OCCO)cc1)C[C@@H](O)c1ccccn1 | -0.838
CC(C)[Si](C#CCCCC#N)(O[C@H](c1ccccc1)c1cn([C@H](C)c2ccccc2)nn1)C(C)C | -2.24
C=CCC(OC(C)=O)[C@@H]1[C@@H](N(Cc2cc3ccccc3o2)C(=O)Cc2ccc(OC)cc2)c2cc(OCCCO)ccc2N1C(=O)Cc1ccc2ccccc2c1 (some centres not stated) | -0.906
CCCC[C@@H]1C[C@H]1[C@@H](NC(=O)Cc1ccccc1)c1ccc(Cl)cc1 | -2.4
C=CCN1C(=O)[C@]2(O[C@H](CCn3cc([C@H](O)c4ccccc4)nn3)[C@@H]([Si](C)(C)c3ccc(OC)cc3)[C@@H]2C)c2cc(N3C(=O)c4cccc5cccc3c45)ccc21 | -1.84
C=C(CCCC)C(=O)CC[C@H](OC(C)=O)c1ccccc1OCCO | -0.881
CN(C)CCCC[C@@H]1NC(=O)[C@H]2C[C@@H](C(=O)NCc3ccc(F)cc3)[C@@H](c3ccc(O)cc3)N2C1=O | 1.07
CC(=O)NCCCC[C@@H]1NC(=O)[C@@H]2C[C@H](C(=O)NCCCCCC[N+](C)(C)C)[C@H](c3ccc(O)cc3)N2C1=O | 3.02
C=C(CCCC)C(=O)CC[C@H](OC(=O)c1cccnc1)c1ccc(CO)o1 | -0.0577
CCC(CC)C(O)C1C=CC2C(=O)N(C)C(=O)C2N1N1CCCCC1 (configuration not stated) | 0.855
COCCOC(=O)N1C(=O)[C@@]2(c3cc(C#CCCO)ccc31)[C@H](C(=O)N1CCN(c3ncccn3)CC1)[C@H]1C(=O)O[C@H](c3ccccc3)[C@H](c3ccccc3)N1[C@@H]2c1ccc(O)cc1 | -1.3
C=CCNC(=O)[C@@H]1[C@H]2C(=O)O[C@H](c3ccccc3)[C@H](c3ccccc3)N2[C@H](c2ccc(O)cc2)[C@@]12C(=O)Nc1ccc(C#CC3(O)CCCCCC3)cc12 | 0.273
CCOC(=O)C[C@H]1[C@H](OC(=O)c2ccc(-c3ccccc3)cc2)[C@@H](NC(=O)CC(C)C)c2cc(OCCCO)ccc2N1C(=O)Cc1ccc(OC)cc1 | -0.33

====

Let's look at some compounds and their measured composite z-score.
Experiment: binders of probe aFST on microarray, primary screen, stem cell growth factor project, biochemical, small-molecule microarray, fluorescence 635/667 (AID 1086);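 also: score merges 667 nm fluorescence with signal-to-noise of each printed compound spot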
Conditions: higher = more signal

COMPOUND | composite z-score
C=CC[C@]1(C(=O)OC)N=C(c2ccc(OCCCO)cc2)O[C@H]1c1ccccc1N=[N+]=[N-] | 1.03
CC(C)CNC(=O)[C@@H]1c2ccccc2C(=O)N(C2Cc3ccccc3C2)[C@H]1c1ccc(CO)cc1 | -0.316
COCCOC(=O)N1C(=O)[C@@]2(c3cc(C#CC4(O)CCCCCC4)ccc31)[C@H](C(=O)NC[C@H](O)c1ccccc1)[C@H]1C(=O)O[C@H](c3ccccc3)[C@H](c3ccccc3)N1[C@@H]2c1ccc(O)cc1 | 0.153
C=CCNC(=O)[C@@H]1[C@H]2C(=O)O[C@H](c3ccccc3)[C@H](c3ccccc3)N2[C@H](c2ccc(O)cc2)[C@@]12C(=O)Nc1ccc(C#CC3(O)CCCCCC3)cc12 | -0.0976
CC(C)C[C@@H]1NC(=O)[C@H]2C[C@@H](C(=O)NCCCCCNC(=O)CS)[C@@H](c3ccc(O)cc3)N2C1=O | 0.0724
COc1ccc(CCNC(=O)[C@@]2(C)c3ccccc3C(=O)N(Cc3cc(C(F)(F)F)cc(C(F)(F)F)c3)[C@H]2c2ccc(CO)cc2)cc1 | 0.169
COCCOC(=O)N1C(=O)[C@@]2(c3cc(C#CC4(O)CCCCCC4)ccc31)[C@H](c1ccc(OCCO)cc1)N1[C@H](c3ccccc3)[C@H](c3ccccc3)OC(=O)[C@H]1[C@@H]2C(=O)N1CCCCCCC1 | 2.41
O=C(NCC(F)(F)F)[C@@H]1c2ccccc2C(=O)N(CC23CC4CC(CC(C4)C2)C3)[C@H]1c1ccc(CO)cc1 | 0.195
COc1cccc(C[C@H]2C[C@@H](CO[Si](C(C)C)(C(C)C)C(C)C)N3C(=O)[C@@]4(C(C)=O)O[C@@]23[C@@H]2C(=O)N(C)C(=O)[C@@H]24)c1 | 0.307
C=CCC(OC(C)=O)[C@@H]1[C@@H](N(Cc2cc3ccccc3o2)C(=O)c2ccc(-c3ccccc3)cc2)c2cc(OCCCO)ccc2N1C(=O)c1ccc2ccccc2n1 (stereo partly drawn) | 0.268
CN(C)CCCNC(=O)[C@@]1(Cc2ccccc2I)c2ccccc2C(=O)N(Cc2ccccc2)[C@H]1c1ccc(CO)cc1 | 0.386
CCCCC(=C=CC[C@@H](O)c1cccc(OCCO)c1)CCO | 0.0204
CCOC(=O)C1=CC[C@@H](c2ccc(F)cc2)N(S(=O)(=O)c2ccc(C)cc2)[C@H]1c1ccc([N+](=O)[O-])cc1 | 0.919

meta.source: PubChem BioAssay
